# IC50 per entry
target: PI3KC2α Δ1-298 (Homo sapiens (Human)); test: ADP-Glo kinase assay with purified PI3KC2α Δ1-298; format: biochemical; conditions: read-out: IC50 (PI3KC2α; ADP-Glo™ assay)
Record the value in µM, omitting the unit from your answer.

// solved cases for IC50 follow
# COMPOUND, IC50 / µM
data = [
    ("Cc1ccnc2[nH]c(CSc3nc4nccnc4c(=O)n3CCc3ccccc3)nc12 [Example Compound 70]", 42),
    ("O=C(CSc1nc2nccnc2c(=O)n1CCc1ccccc1)Nc1ccccc1F [Example Compound 15]", 6),
    ("O=c1c2nccnc2nc(SCc2nc3ccccc3[nH]2)n1CCc1ccccc1 [Example Compound 65]", 0.17),
]

I'd like to know its IC50. The compound in question is Cc1cnc2nc(SCC(=O)Nc3nccs3)n(CCc3ccccc3)c(=O)c2n1 [Example Compound 46]
23

* * *

target: PI3KC2α Δ1-298 (Homo sapiens (Human), UniProt O00443); assay: ADP-Glo kinase assay with purified PI3KC2α Δ1-298; type: biochemical; conditions: read-out: IC50 (PI3KC2α; ADP-Glo™ assay)
Sequence (O00443 299-1686): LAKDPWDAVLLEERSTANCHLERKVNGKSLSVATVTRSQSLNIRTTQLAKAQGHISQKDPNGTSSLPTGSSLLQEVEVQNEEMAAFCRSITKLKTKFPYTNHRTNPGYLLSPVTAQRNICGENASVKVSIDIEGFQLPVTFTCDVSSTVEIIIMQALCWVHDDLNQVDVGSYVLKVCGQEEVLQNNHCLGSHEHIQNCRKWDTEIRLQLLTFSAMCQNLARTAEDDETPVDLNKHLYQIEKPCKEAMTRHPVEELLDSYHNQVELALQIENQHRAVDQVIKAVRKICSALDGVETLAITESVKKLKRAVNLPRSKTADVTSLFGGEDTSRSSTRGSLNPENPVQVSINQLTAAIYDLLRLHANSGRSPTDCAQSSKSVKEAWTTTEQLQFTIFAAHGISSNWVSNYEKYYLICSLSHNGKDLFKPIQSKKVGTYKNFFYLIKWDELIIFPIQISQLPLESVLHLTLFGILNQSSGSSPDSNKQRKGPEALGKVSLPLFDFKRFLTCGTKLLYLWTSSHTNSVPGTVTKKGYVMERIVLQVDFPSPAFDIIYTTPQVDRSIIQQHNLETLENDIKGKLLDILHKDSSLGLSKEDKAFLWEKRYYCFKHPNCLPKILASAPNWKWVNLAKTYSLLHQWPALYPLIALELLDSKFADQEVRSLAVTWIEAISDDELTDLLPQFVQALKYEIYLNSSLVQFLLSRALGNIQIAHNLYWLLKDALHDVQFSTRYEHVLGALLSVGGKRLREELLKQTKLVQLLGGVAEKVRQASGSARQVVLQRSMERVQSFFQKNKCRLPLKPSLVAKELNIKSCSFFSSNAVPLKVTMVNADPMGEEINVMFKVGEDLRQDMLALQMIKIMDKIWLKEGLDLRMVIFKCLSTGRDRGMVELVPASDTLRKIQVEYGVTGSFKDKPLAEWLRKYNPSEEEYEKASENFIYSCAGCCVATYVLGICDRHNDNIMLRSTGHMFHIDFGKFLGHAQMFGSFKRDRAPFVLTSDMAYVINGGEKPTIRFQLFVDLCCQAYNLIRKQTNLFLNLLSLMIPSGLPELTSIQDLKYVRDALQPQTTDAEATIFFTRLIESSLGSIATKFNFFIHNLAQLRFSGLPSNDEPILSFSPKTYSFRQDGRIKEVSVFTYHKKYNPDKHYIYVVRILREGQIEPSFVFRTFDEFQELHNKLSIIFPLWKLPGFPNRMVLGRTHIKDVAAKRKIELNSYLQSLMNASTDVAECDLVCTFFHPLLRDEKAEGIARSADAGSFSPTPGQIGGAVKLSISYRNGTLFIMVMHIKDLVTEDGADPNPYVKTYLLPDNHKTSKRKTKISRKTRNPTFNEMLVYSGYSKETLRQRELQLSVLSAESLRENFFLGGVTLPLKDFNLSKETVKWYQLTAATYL
pIC50: −log10 of the molar value.
Record MET whenever pIC50 is at 6 or higher; record NOT MET when lower.

Completed entries (count: 2):
# COMPOUND, CLASSIFICATION
records = [
    ("O=C(CSc1nc2nccnc2c(=O)n1CCc1ccccc1)NC1CCC1", "NOT MET"),
    ("O=C(CSc1nc2nccnc2c(=O)n1CCc1ccccc1)Nc1cc(-c2ccccc2)cs1", "NOT MET"),
]

Given "O=c1c2nccnc2nc(SCc2nc3cccnc3[nH]2)n1CCc1ccccc1" , state whether its pIC50 is at least 6.
MET

Then this compound: "N#Cc1ccc(-c2csc(NC(=O)CSc3nc4nccnc4c(=O)n3CCc3ccccc3)n2)cc1"
NOT MET

Then this compound: "COC(=O)[C@H]1C[C@H](n2c(SCC(=O)Nc3nccs3)nc3nccnc3c2=O)C1"
MET

Then this compound: "O=C(CSc1nc2nccnc2c(=O)n1-c1cccc(-c2ccccc2)c1)Nc1nccs1"
NOT MET

Then this compound: "Cc1nnc(NS(=O)(=O)c2ccc(-n3c(SCC(=O)Nc4nccs4)nc4nccnc4c3=O)cc2)s1"
MET

Then this compound: "COc1cccc2nc(NC(=O)CSc3nc4nccnc4c(=O)n3CCc3ccccc3)sc12"
NOT MET

Then this compound: CC(Sc1nc2nccnc2c(=O)n1CCc1cccc(F)c1)C(=O)Nc1nccs1 (stereo not shown)
NOT MET

* * *

target: PI3KC2α Δ1-298 (Homo sapiens (Human), UniProt O00443); assay: ADP-Glo kinase assay with purified PI3KC2α Δ1-298; assay type: biochemical; settings: read-out: IC50 (PI3KC2α; ADP-Glo™ assay)
RECORDED ENDPOINT: pIC50
The scale used: pIC50 is minus the common logarithm of the concentration in molar units.

// solved cases for pIC50 follow
# COMPOUND, pIC50
records = [
    ("N#Cc1ccc(-n2c(SCC(=O)Nc3nccs3)nc3nccnc3c2=O)cc1", 5.92),
    ("Cn1ncc2c(=O)[nH]c(CSc3nc4nccnc4c(=O)n3CCc3ccccc3)nc21", 5.82),
    ("O=C(CSc1nc2nccnc2c(=O)n1CCc1cccc(F)c1)Nc1nccs1", 6.08),
    ("O=c1c2nccnc2nc(SCc2nc3cc(Br)cnc3[nH]2)n1CCc1ccccc1", 6.04),
    ("CS(=O)(=O)c1ccc(-n2c(SCc3nc4ccccc4[nH]3)nc3nccnc3c2=O)cc1", 6.04),
]

Value wanted: pIC50 (PI3KC2α Δ1-298 (Homo sapiens (Human), UniProt O00443)) of entry "O=C(CSc1nc2nccnc2c(=O)n1CCc1ccccc1)Nc1nc(-c2ccccc2)cs1"
5.90

Then this compound: "O=C(CSc1nc2nccnc2c(=O)n1CCc1ccccc1)Nc1ncc(Br)s1"
5.18

Then this compound: "O=C(CSc1nc2cccnc2c(=O)n1CCc1ccccc1)Nc1nccs1"
4.89

Then this compound: "O=C(CSc1nc2nccnc2c(=O)n1CCc1cccc(F)c1)NC1CC1"
5.15

Then this compound: "CC(C)(C)OC(=O)N1CCC(n2c(SCc3nc4ccccc4[nH]3)nc3nccnc3c2=O)CC1"
5.92

Then this compound: "Cc1nnc(NC(=O)CSc2nc3nccnc3c(=O)n2CCc2cccc(F)c2)s1"
5.20

Then this compound: "O=C(CSc1nc2nccnc2c(=O)n1CCc1ccccc1)Nc1ncccn1"
5.70

Then this compound: O=c1c2nccnc2nc(SCc2nc3ccccc3[nH]2)n1[C@@H]1C[C@H]1c1ccccc1 (relative stereo)
5.74
